- Measured on: recombinant PRL-2 (Homo sapiens)
- Construct: 6xHis (N, cleaved yes); made in house; host or cells: E. coli One Shot BL21 Star
- Sequence (Q12974 1-167): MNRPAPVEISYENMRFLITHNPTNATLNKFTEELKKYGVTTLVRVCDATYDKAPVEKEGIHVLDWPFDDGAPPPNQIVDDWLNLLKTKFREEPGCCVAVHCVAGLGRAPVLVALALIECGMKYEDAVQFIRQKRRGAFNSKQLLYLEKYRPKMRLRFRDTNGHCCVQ
- Assay protocol: In vitro phosphatase assay (DiFMUP hydrolysis), PRL-2
- Format: biochemical
- Conditions: FDA-approved drug screen; compared to DMSO
Counter-ions that a name gives are not always drawn.
Measure: % Phosphatase Activity (compared to DMSO) PRL-2
Give the figure together with its unit, number first.

Take a look at these entries with their results.
| Compound | Recorded value |
| --- | --- |
| Cl.NCC1(CC(=O)O)CCCCC1 [Gabapentin HCl] | 87% |
| Cl.N=C(N=C(N)N)N1CCOCC1 [Moroxydine HCl] | 102% |
| CC(C)NCC(O)c1cc(O)cc(O)c1 (centres unmarked) [Metaproterenol Sulfate] | 112% |
| CCCCN1CCCCC1C(=O)Nc1c(C)cccc1C (centres unmarked) [Bupivacaine HCl] | 108% |

Ask: Please report the recorded % Phosphatase Activity (compared to DMSO) PRL-2 for OC(c1cc(C(F)(F)F)nc2c(C(F)(F)F)cccc12)C1CCCCN1 (centres unmarked) [Mefloquine HCl] .
Result: 106%

###

- Measured on: recombinant PRL-2 (Homo sapiens, UniProt Q12974)
- Construct: 6xHis (N, cleaved yes); made in house; host or cells: E. coli One Shot BL21 Star
- Assay protocol: In vitro phosphatase assay (DiFMUP hydrolysis), PRL-2
- Assay type: biochemical
- Conditions: […] protein, DiFMUP at KM; read-out: Calculated IC50, PRL-2 phosphatase activity
Form field: IC50 (one value per entry).
Express your answer in µM, writing the number without its unit.

Take a look at these entries with their results.
| Molecule | IC50, µM |
| --- | --- |
| CC1=NN(c2ccc(C)c(C)c2)C(=O)/C1=N\Nc1cccc(-c2cccc(C(=O)O)c2)c1O [Eltromobag Olamine, reference compound] | 166 |
| CCOc1nc2cccc(C(=O)O)c2n1Cc1ccc(-c2ccccc2-c2nnn[nH]2)cc1 | 80 |

Ask: Please report the recorded IC50 for Cc1cc(C(C#N)c2ccc(Cl)cc2)c(Cl)cc1NC(=O)c1cc(I)cc(I)c1[O-].[Na+] (stereo not drawn) [Closantel Sodium, reference compound] .
Result: 18

###

- Measured on: recombinant PRL-2 (Homo sapiens, UniProt Q12974)
- Construct: 6xHis (N, cleaved yes); made in house; host or cells: E. coli One Shot BL21 Star
- Assay protocol: In vitro phosphatase assay (DiFMUP hydrolysis), PRL-2
- Format: biochemical
- Conditions: FDA-approved drug screen; compared to DMSO
Measure: % Phosphatase Activity (compared to DMSO) PRL-2 (%)
Express your answer in %, writing the number without its unit.

Ask: Please report the recorded % Phosphatase Activity (compared to DMSO) PRL-2 for CN(C)CCN1C(=O)c2cccc3cc(N)cc(c23)C1=O [Amonafide] .
Result: 98

Ask: Please report the recorded % Phosphatase Activity (compared to DMSO) PRL-2 for C[C@H]1C[C@@H]2[C@H]([C@@H](O)C[C@@]3(C)[C@H]2CC[C@]3(O)C(=O)CO)[C@@]2(C)C=CC(=O)C=C12 [Methylprednisolone] .
Result: 95

Ask: Please report the recorded % Phosphatase Activity (compared to DMSO) PRL-2 for CCc1cc(/C(C)=N/OCc2ccc(C3CCCCC3)c(C(F)(F)F)c2)ccc1CN1CC(C(=O)O)C1 [BAF312 (Siponimod)] .
Result: 87

Ask: Please report the recorded % Phosphatase Activity (compared to DMSO) PRL-2 for CN[C@H]1C[C@@H](N)[C@H](O)[C@@H](O[C@@H]2O[C@H](CO)[C@H](O)[C@@H]3OC4(O[C@H]23)O[C@H]([C@@H](N)CO)[C@H](O)[C@H](O)[C@H]4O)[C@@H]1O (stereo partly shown) [Hygromycin B] .
Result: 98

Ask: Please report the recorded % Phosphatase Activity (compared to DMSO) PRL-2 for O=c1[nH]cc(F)c(=O)[nH]1 [Fluorouracil (5-Fluoracil, 5-FU)] .
Result: 109

Ask: Please report the recorded % Phosphatase Activity (compared to DMSO) PRL-2 for CC(O)C(=O)O.CC(O)C(=O)O.CN1CCN(c2ccc3nc(-c4c(N)c5c(F)cccc5[nH]c4=O)[nH]c3c2)CC1 [Dovitinib (TKI-258) Dilactic Acid] .
Result: 80

Ask: Please report the recorded % Phosphatase Activity (compared to DMSO) PRL-2 for CC(=O)O[C@H]1Cc2ccccc2N(C(N)=O)c2ccccc21 [Eslicarbazepine Acetate] .
Result: 117

###

- Measured on: recombinant PRL-1 (Homo sapiens, UniProt Q93096)
- Construct: 6xHis (N, cleaved yes); made in house; host or cells: E. coli One Shot BL21 Star
- Sequence (Q93096 1-173): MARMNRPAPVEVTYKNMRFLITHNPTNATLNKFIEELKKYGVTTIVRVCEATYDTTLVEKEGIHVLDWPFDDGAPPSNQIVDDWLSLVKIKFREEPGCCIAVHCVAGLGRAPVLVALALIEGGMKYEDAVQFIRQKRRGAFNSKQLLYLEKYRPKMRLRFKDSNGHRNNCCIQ
- Assay protocol: In vitro phosphatase assay (DiFMUP hydrolysis), PRL-1; further: test concentration or dose not given here
- Type: biochemical
- Conditions: FDA-approved drug screen; compared to DMSO
Where a name gives a salt, the structure may show the parent alone.
Measure: % Phosphatase Activity (compared to DMSO) PRL-1 (%)
Express your answer in %, writing the number without its unit.

| Molecule | Units label | Recorded value |
| --- | --- | --- |
| CCc1cc(/C(C)=N/OCc2ccc(C3CCCCC3)c(C(F)(F)F)c2)ccc1CN1CC(C(=O)O)C1 [BAF312 (Siponimod)] | % | 99 |
| CN1CCC(=C2c3ccccc3CC(=O)c3sccc32)CC1 [Ketotifen Fumarate] | % | 93 |
| C1=N/C2=N/c3ccc(OCCN4CCCC4)c(c3)COC/C=C/COCc3cccc(c3)C(=C1)N2 [Pacritinib (SB1518)] | % | 95 |
| CC(=O)OCC(=O)[C@@]12N=C(C)O[C@@H]1C[C@H]1[C@@H]3CCC4=CC(=O)C=C[C@]4(C)[C@H]3[C@@H](O)C[C@@]12C [Deflazacort] | % | 90 |
| CC(C)(C)C(=O)C(Oc1ccc(Cl)cc1)n1ccnc1 (centres unmarked) [Climbazole] | % | 87 |
| CCc1ccc(CCOc2ccc(CC3SC(=O)NC3=O)cc2)nc1 (centres unmarked) [Pioglitazone] | % | 103 |

Ask: Please report the recorded % Phosphatase Activity (compared to DMSO) PRL-1 for O=c1[nH]c(=O)n(C2CCCO2)cc1F (centres unmarked) [FT-207 (NSC 148958)] .
Result: 115

Ask: Please report the recorded % Phosphatase Activity (compared to DMSO) PRL-1 for Nc1nc(Cl)nc2c1ncn2[C@@H]1O[C@H](CO)[C@@H](O)[C@@H]1F [Clofarabine] .
Result: 97

###

- Measured on: recombinant PRL-2 (Homo sapiens, UniProt Q12974)
- Construct: 6xHis (N, cleaved yes); made in house; host or cells: E. coli One Shot BL21 Star
- Sequence (Q12974 1-167): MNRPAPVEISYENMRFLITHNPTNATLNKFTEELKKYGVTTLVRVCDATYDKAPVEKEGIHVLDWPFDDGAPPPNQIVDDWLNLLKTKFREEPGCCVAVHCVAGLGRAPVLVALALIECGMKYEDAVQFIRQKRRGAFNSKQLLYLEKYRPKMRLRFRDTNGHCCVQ
- Assay protocol: In vitro phosphatase assay (DiFMUP hydrolysis), PRL-2;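 further: PRL-2 activity read as DiFMUP hydrolysis after 20 min at room temperature with drug, enzyme first pre-reduced at 4 °C for 20 min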
- Assay type: biochemical
- Conditions: FDA-approved drug screen; compared to DMSO
Where a name gives a salt, the structure may show the parent alone.
Measure: % Phosphatase Activity (compared to DMSO) PRL-2 (%)
Express your answer in %, writing the number without its unit.

| Molecule | Recorded value |
| --- | --- |
| C=C[C@]1(C)C[C@@H](OC(=O)CS[C@@H]2C[C@H]3CC[C@@H](C2)N3C)[C@]2(C)[C@H](C)CC[C@]3(CCC(=O)[C@H]32)[C@@H](C)[C@@H]1O [Retapamulin] | 123 |
| COc1ccc2cccc(CCNC(C)=O)c2c1 [Agomelatine] | 98 |
| C[C@@H](O)[C@@H]1NC(=O)[C@H](CCCCN)NC(=O)[C@@H](Cc2c[nH]c3ccccc23)NC(=O)[C@H](Cc2ccccc2)NC(=O)[C@@H](NC(=O)[C@H](N)Cc2ccccc2)CSSC[C@@H](C(=O)N[C@H](CO)[C@@H](C)O)NC1=O [Octreotide Acetate] | 90 |
| O=C([O-])C(O)[C@H](O)[C@@H](O)[C@H](O)[C@H](O)CO.O=C([O-])C(O)[C@H](O)[C@@H](O)[C@H](O)[C@H](O)CO.[Ca+2] (stereo partly shown) [Calcium Gluceptate] | 104 |
| NC(=O)C[S+]([O-])C(c1ccccc1)c1ccccc1 (stereo not shown) [Modafinil] | 92 |

Ask: Please report the recorded % Phosphatase Activity (compared to DMSO) PRL-2 for N#C[C@@H]1C[C@@H]2C[C@@H]2N1C(=O)[C@@H](N)C12CC3CC(CC(O)(C3)C1)C2 [Saxagliptin] .
Result: 113

Ask: Please report the recorded % Phosphatase Activity (compared to DMSO) PRL-2 for Cc1cccc(-c2nn3c(c2-c2ccnc4ccc(C(N)=O)cc24)CCC3)n1 [LY2157299] .
Result: 130

Ask: Please report the recorded % Phosphatase Activity (compared to DMSO) PRL-2 for CCN(CCO)CCCC(C)Nc1ccnc2cc(Cl)ccc12 (stereo not shown) [Hydroxychloroquine Sulfate] .
Result: 100

Ask: Please report the recorded % Phosphatase Activity (compared to DMSO) PRL-2 for CN(C)CCOC(c1ccccc1)c1ccccc1 [Diphenhydramine HCl] .
Result: 108
